# MEASUREMENT_DESCRIPTION: Transnasal administration experiment in closed system, plasma pharmacokinetics (Test Example 1)
# CONDITIONS_USED: male, Wistar, rat, in vivo, inhaled or intranasal, 20 mg/kg
Where a name gives a salt, the structure may show the parent alone.
REPORTED_METRIC: Tmax
Answer as a quantity: numeral, then unit.

Task item: # input molecule: CCN(CC)C(=O)C1(c2ccccc2)CC1CN (racemic) [milnacipran hydrochloride] ; wanted: its Tmax
Reply: 20 min

###

# MEASUREMENT_DESCRIPTION: Evaluation of transfer of milnacipran hydrochloride to central nerve system, CSF concentration (Test Example 4)
# Set-up: species or system Wistar male rats
# CONDITIONS_USED: male, Wistar, rat, in vivo, iv, 20 mg/kg, Kpu (brain transfer ratio)
Where a name gives a salt, the structure may show the parent alone.
REPORTED_METRIC: Kp
Answer with the value's number alone.

Task item: # input compound: CCN(CC)C(=O)C1(c2ccccc2)CC1CN (racemic) [milnacipran hydrochloride] ; wanted: its Kp
Reply: 0.028
